System: SW1900 cells (KRAS G12D)
Protocol text: Cell-based pERK HTRF assay in SW1900 cells (Biological Example 5)
Reported conditions: SW1990 cells (text: SW1900, KRAS G12D)
Text: Biological Example 5: Cell-based PERK HTRF assay in AsPC-1, SW1900, HPAC, Capan-2, RKN, H358, HCT116, KP-2, H1573, A549, MKN1, and HT1080 cells The inhibition of ERK phosphorylation, as measured using the HTRF Advanced Phospho-ERK 1/2 (Thr202/Tyr204) Detection Assay kit (Perkin Elmer), was used to determine the effectiveness of test compounds in disrupting KRAS-driven protein/effector signaling in cells. […]
Readout kind: IC50

Compound | IC50
CCN(c1nc(OC[C@@]23CCCN2C[C@H](F)C3)nc2c(F)c(-c3ccc(F)c4sc(N)c(C#N)c34)c(C(F)(F)F)cc12)[C@H]1CCN(C(=O)C(C)C)C1 | ≤ 100 nM

Then there is this compound:
Q: Could you share what IC50 was measured for CCN(c1nc(OCC23CCCN2CC(F)C3)nc2c(F)c(-c3ccc(F)c4sc(N)c(C#N)c34)c(C(F)(F)F)cc12)C1CC(C)N(C(=O)C2CC2(F)F)C1 (centres unmarked) , tested on SW1900 cells (KRAS G12D)?
Result: ≤ 100 nM

====

pIC50 reference
Experimental target: Avi-KRAS G12V (1-169) GppNHp/RAF1 RBD-3xFLAG (52-151) (Homo sapiens, UniProt P01116, G12V)
Construct: Avi-KRAS G12V (1-169)
Sequence (P01116 1-169 isoform P01116-2 G12V): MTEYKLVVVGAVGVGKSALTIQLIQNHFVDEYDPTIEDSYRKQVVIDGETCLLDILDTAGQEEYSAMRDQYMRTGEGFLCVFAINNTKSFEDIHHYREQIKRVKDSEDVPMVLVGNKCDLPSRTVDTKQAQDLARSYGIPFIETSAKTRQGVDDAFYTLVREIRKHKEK
Protocol text: Raf1-KRAS G12V-GppNHP disruption HTRF assay (Biological Example 1)
Assay type: binding
Reported conditions: KRAS G12V, GppNHp-loaded; class symbols
pIC50: −log10 of the molar value.

Molecule | Experimental target | Result
CCN(c1nc(OC[C@@]23CCCN2C[C@H](F)C3)nc2c(F)c(-c3ccc(F)c4sc(N)c(C#N)c34)c(C(F)(F)F)cc12)[C@H]1CCN(C(=O)C2CCOCC2)C1 (atropisomer, axis not shown) | Avi-KRAS G12V (1-169) GppNHp/RAF1 RBD-3xFLAG (52-151) (Homo sapiens, UniProt P01116, G12V) | > 7.00
CCN(c1nc(OC[C@@]23CCCN2C[C@H](F)C3)nc2c(F)c(-c3ccc(F)c4sc(N)c(C#N)c34)c(C(F)(F)F)cc12)[C@H]1CCN(C(=O)C2CC2(F)F)C1 (stereo partly drawn) | Avi-KRAS G12V (1-169) GppNHp/RAF1 RBD-3xFLAG (52-151) (Homo sapiens, UniProt P01116, G12V) | > 7.00
CCN(c1nc(OC[C@@]23CCCN2C[C@H](F)C3)nc2c(F)c(-c3ccc(F)c4sc(N)c(C#N)c34)c(C(F)(F)F)cc12)[C@H]1CCN(C(=O)[C@H](C)OC)C1 (atropisomer, axis not shown) | Avi-KRAS G12V (1-169) GppNHp/RAF1 RBD-3xFLAG (52-151) (Homo sapiens, UniProt P01116, G12V) | > 7.00
CCN(c1nc(OC[C@@]23CCCN2C[C@H](F)C3)nc2c(F)c(-c3ccc(F)c4sc(N)c(C#N)c34)c(C(F)(F)F)cc12)[C@H]1CCN(C(=O)OC2CCN(C(C)=O)CC2)C1 (atropisomer, axis not shown) | Avi-KRAS G12V (1-169) GppNHp/RAF1 RBD-3xFLAG (52-151) (Homo sapiens, UniProt P01116, G12V) | > 7.00
CCN(c1nc(OC[C@@]23CCCN2C[C@H](F)C3)nc2c(F)c(-c3ccc(F)c4sc(N)c(C#N)c34)c(C(F)(F)F)cc12)[C@H]1CCN(C(=O)CC(F)F)C1 (atropisomer, axis not shown) | Avi-KRAS G12V (1-169) GppNHp/RAF1 RBD-3xFLAG (52-151) (Homo sapiens, UniProt P01116, G12V) | > 7.00

Q: Need pIC50 of "CC#CC(=O)N1CC[C@@H](N(C)c2nc(OC[C@@]34CCCN3C[C@H](F)C4)nc3c(F)c(-c4ccc(F)c5sc(N)c(C#N)c45)c(C(F)(F)F)cc23)[C@H]1C" , thanks.
Result: 6.00 to 7.00

Q: Need pIC50 of CCN(c1nc(OC[C@@]23CCCN2C[C@H](F)C3)nc2c(F)c(-c3ccc(F)c4sc(N)c(C#N)c34)c(C(F)(F)F)cc12)[C@H]1CCN(C(=O)N2CC(OC)C2)C1 (atropisomer, axis not shown) , thanks.
Result: > 7.00

Q: Need pIC50 of COC(=O)N1CC[C@H](N(c2nc(OC[C@@]34CCCN3C[C@H](F)C4)nc3c(F)c(-c4ccc(F)c5sc(N)c(C#N)c45)c(C(F)(F)F)cc23)C2CC2)C1 (atropisomer, axis not shown) , thanks.
Result: 6.00 to 7.00

Q: Need pIC50 of "C/C=C/C(=O)N1CC[C@@H](N(C)c2nc(OC[C@@]34CCCN3C[C@H](F)C4)nc3c(F)c(-c4ccc(F)c5sc(N)c(C#N)c45)c(C(F)(F)F)cc23)[C@H]1C" , thanks.
Result: 6.00 to 7.00

====

Experimental target: Avi-KRAS G12C (2-169) GTP/RAF1 RBD-3xFLAG (51-131) (Homo sapiens, UniProt P01116, G12C)
Construct: Avi-KRAS G12C (2-169)
Sequence (P01116 2-169 isoform P01116-2 G12C): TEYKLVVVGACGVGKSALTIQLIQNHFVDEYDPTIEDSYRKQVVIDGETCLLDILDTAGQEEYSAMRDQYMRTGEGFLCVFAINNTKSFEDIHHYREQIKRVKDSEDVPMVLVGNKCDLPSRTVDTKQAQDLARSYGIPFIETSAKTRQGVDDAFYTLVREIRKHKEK
Protocol text: Raf1-KRAS G12C-GTP disruption HTRF assay (Biological Example 3)
Type: binding
Reported conditions: KRAS G12C, GTP-loaded
pIC50: −log10 of the molar value.
Readout kind: pIC50

Compound | pIC50
CCN(c1nc(OC[C@@]23CCCN2C[C@H](F)C3)nc2c(F)c(-c3ccc(F)c4sc(N)c(C#N)c34)c(C(F)(F)F)cc12)[C@H]1CCN(C(=O)OCC2COC2)[C@@H]1C (atropisomer, axis not shown) | ≥ 7.00

Q: Need pIC50 of N#Cc1c(N)sc2c(F)ccc(-c3c(C(F)(F)F)cc4c(N5CCn6nc(C(=O)N7CCOCC7)cc6C5)nc(OCC56CCCN5CC(F)C6)nc4c3F)c12 (stereo not drawn) , thanks.
Result: 6.00 to 7.00

Q: Need pIC50 of CN(Cc1cccnn1)c1nc(OC[C@@]23CCCN2C[C@H](F)C3)nc2c(F)c(-c3ccc(F)c4sc(N)c(C#N)c34)c(C(F)(F)F)cc12 (atropisomer, axis not shown) , thanks.
Result: 6.00 to 7.00

====

IC50 reference
System: SW620 cells (KRAS G12V)
Protocol text: Cell-based pERK HTRF assay in SW620 cell (Biological Example 4)
Reported conditions: Homo sapiens, SW-620, SW620 (KRAS G12V) cells, pERK HTRF

Worked cases, answers included:
Molecule | Result
CCN(c1nc(OC[C@@]23CCCN2C[C@H](F)C3)nc2c(F)c(-c3ccc(F)c4sc(N)c(C#N)c34)c(C(F)(F)F)cc12)[C@@H]1C[C@@H]2CCC(=O)N2C1 [Compound 511] | < 100 nM
CCN(c1nc(OC[C@@]23CCCN2C[C@H](F)C3)nc2c(F)c(-c3ccc(F)c4sc(N)c(C#N)c34)c(C(F)(F)F)cc12)[C@H]1CCN(C(=O)COC)C1 (atropisomer, axis not shown) [Compound 561] | < 100 nM
CN1CCN(c2nc(OC[C@@]34CCCN3C[C@H](F)C4)nc3c(F)c(-c4ccc(F)c5sc(N)c(C#N)c45)c(C(F)(F)F)cc23)CCS1(=O)=O [Compound 311] | > 1000 nM
CC[C@@H]1[C@H](N(C)c2nc(OC[C@@]34CCCN3C[C@H](F)C4)nc3c(F)c(-c4ccc(F)c5sc(N)c(C#N)c45)c(C(F)(F)F)cc23)CCN1C(=O)C(C)C [Compound 433] | 100 to 1000 nM
CCN(c1nc(OC[C@@]23CCCN2C[C@H](F)C3)nc2c(F)c(-c3ccc(F)c4sc(N)c(C#N)c34)c(C(F)(F)F)cc12)[C@H]1CCN(C(=O)C2(C#N)CC2)C1 [Compound 560] | < 100 nM
CC(=O)N1CCC[C@@H](N(C)c2nc(OC[C@@]34CCCN3C[C@H](F)C4)nc3c(F)c(-c4ccc(F)c5sc(N)c(C#N)c45)c(C(F)(F)F)cc23)C1 [Compound 295] | < 100 nM
COC(=O)N1CC[C@@H](N(C)c2nc(OC[C@@]34CCCN3C[C@H](F)C4)nc3c(F)c(-c4ccc(F)c5sc(N)c(C#N)c45)c(C(F)(F)F)cc23)[C@H]1C [Compound 410] | < 100 nM
CS(=O)(=O)C1CN(c2nc(OC[C@@]34CCCN3C[C@H](F)C4)nc3c(F)c(-c4ccc(F)c5sc(N)c(C#N)c45)c(C(F)(F)F)cc23)C1 [Compound 223] | 100 to 1000 nM

Q: Need IC50 of CC(=O)N1CC[C@@](C)(N(C)c2nc(OC[C@@]34CCCN3C[C@H](F)C4)nc3c(F)c(-c4ccc(F)c5sc(N)c(C#N)c45)c(C(F)(F)F)cc23)[C@H]1C [Compound 342] , thanks.
Result: 100 to 1000 nM

Q: Need IC50 of CCC(=O)N1CC[C@@](C)(N(C)c2nc(OC[C@@]34CCCN3C[C@H](F)C4)nc3c(F)c(-c4ccc(F)c5sc(N)c(C#N)c45)c(C(F)(F)F)cc23)[C@H]1C [Compound 343] , thanks.
Result: 100 to 1000 nM

Q: Need IC50 of N#Cc1c(N)sc2c(F)ccc(-c3c(C(F)(F)F)cc4c(N5C[C@H]6C[C@@H]5CS6(=O)=O)nc(OC[C@@]56CCCN5C[C@H](F)C6)nc4c3F)c12 [Compound 322] , thanks.
Result: 100 to 1000 nM
